method: CCTE_Shafer_MEA_acute_per_network_burst_spike_number_mean: CCTE's Neural Acute Assay for Average Number of Spikes in a Network Burst, Shafer Lab (AID 2284019)
Calls of active or inactive are those of the source. How the source made its calls: active means hit-call score of the fitted dose curve at least 0.9, where 1 is the maximum; inactive means score below 0.9.
Bench note: report the call from active, inactive

Example cases with answers are listed next.
- compound: "CS/C(C)=N/OC(=O)N(C)SN(C)C(=O)O/N=C(\\C)SC"
  discrete_label: "active"
- compound: "CON(C)C(=O)Nc1ccc(Cl)c(Cl)c1"
  discrete_label: "inactive"
- compound: "CCCC1COC(Cn2cncn2)(c2ccc(Cl)cc2Cl)O1 (stereo unspecified)"
  discrete_label: "active"
- compound: "CCNc1nc(Cl)nc(NC(C)C)n1"
  discrete_label: "inactive"
- compound: "C=CCC1=C(C)[C@@H](OC(=O)[C@@H]2[C@@H](C=C(C)C)C2(C)C)CC1=O"
  discrete_label: "inactive"

Q: Outcome? COP(N)(=O)SC (stereo unspecified)
Ans: inactive
